- assayedSystem: Tel-TrkA (Homo sapiens, UniProt P04629)
- Construct: dimerization domain of Tel (ETV6) transcription factor (fusion partner, human ETV6 P41212); expressed in transfected cells; host or cells: luciferase expressing Ba/F3 murine hematopoietic progenitor cells; the other entry of the earlier key: ETV6 (P41212, Transcription factor ETV6)
- Sequence (P04629 510-796 limits assumed): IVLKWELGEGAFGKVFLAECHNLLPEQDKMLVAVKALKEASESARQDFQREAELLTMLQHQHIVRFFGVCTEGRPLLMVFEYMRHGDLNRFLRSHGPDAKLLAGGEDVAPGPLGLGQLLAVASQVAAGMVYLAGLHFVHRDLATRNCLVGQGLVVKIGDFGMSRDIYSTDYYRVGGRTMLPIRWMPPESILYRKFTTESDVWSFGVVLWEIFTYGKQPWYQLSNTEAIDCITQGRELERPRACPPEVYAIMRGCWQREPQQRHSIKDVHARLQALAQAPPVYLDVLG
- experimentDescription: Inhibition of proliferation of Ba/F3 cells expressing Tel-TrkA (BaF3/Tel-TrkA, luciferase/Bright Glo readout)
- Type: cell-based
- testSettings: read-out: Ba/F3 Tel-TrkA IC 50
assayEndpoint: IC50 (nM)
Just the number in nM, nothing appended.

## Input Looking for the measured IC50 of CCN(CC)CCNc1cccc(-c2cnc3ccc(N4CCCC4c4cccc(F)c4)nn23)n1 (stereo not drawn) , can you help?
## Output 21

## Input Looking for the measured IC50 of NC(=O)C1CCCN(c2cccc(-c3cnc4ccc(N5CCOCC5c5cccc(F)c5)nn34)n2)C1 (stereo not drawn) , can you help?
## Output 23

## Input Looking for the measured IC50 of Cc1ccc(C)c(C2CCCN2c2ccc3ncc(-c4cccc(C(=O)O)n4)n3n2)c1 (stereo not drawn) , can you help?
## Output 2310

====

- assayedSystem: Tel-TrkC (Homo sapiens)
- Construct: The cells also express luciferase as the viability read-out; it is not fused to the kinase; P41212 (Transcription factor ETV6)
- Sequence (Q16288 whole entry, the tested form may be a part): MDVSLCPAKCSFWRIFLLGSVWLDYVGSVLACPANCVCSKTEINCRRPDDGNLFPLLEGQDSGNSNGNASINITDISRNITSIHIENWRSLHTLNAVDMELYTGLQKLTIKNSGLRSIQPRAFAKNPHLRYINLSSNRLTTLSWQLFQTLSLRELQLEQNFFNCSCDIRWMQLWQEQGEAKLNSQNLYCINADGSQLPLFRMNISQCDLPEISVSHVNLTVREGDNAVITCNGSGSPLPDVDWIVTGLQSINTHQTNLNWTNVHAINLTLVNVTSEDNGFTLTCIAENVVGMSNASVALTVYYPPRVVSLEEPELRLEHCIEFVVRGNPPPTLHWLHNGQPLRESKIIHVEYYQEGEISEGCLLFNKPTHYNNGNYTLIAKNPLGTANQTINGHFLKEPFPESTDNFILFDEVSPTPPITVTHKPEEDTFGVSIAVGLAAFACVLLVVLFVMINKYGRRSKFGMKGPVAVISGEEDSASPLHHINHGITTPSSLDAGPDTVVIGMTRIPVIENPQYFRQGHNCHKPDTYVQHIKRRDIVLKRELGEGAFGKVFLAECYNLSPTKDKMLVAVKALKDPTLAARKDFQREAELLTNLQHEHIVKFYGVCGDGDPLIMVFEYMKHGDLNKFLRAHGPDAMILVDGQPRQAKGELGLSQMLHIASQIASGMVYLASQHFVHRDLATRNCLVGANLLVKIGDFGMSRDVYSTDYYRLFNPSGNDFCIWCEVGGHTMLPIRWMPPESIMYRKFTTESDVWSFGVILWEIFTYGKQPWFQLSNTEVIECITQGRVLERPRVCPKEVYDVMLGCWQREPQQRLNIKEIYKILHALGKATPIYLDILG
- experimentDescription: Inhibition of proliferation of Ba/F3 cells expressing Tel-TrkC (BaF3/Tel-TrkC)
- testSettings: read-out: Ba/F3 Tel-TrkC IC 50
assayEndpoint: IC50

Solved entries (count: 4):
## Input Looking for the measured IC50 of N#Cc1cccc(-n2cnc3ccc(N4CCSC4c4cc(F)ccc4F)nc32)c1 (stereo not shown) , can you help?
## Output 18 nM

## Input Looking for the measured IC50 of N#Cc1ccc(-c2cnc3ccc(N4CCCC4c4cc(F)ccc4F)nn23)cc1N1CCC(N2CCOCC2)CC1 (stereo not shown) , can you help?
## Output 1.7 nM

## Input Looking for the measured IC50 of Fc1cccc(C2CCCN2c2ccc3ncc(-c4cncc(Cl)n4)n3n2)c1 (stereo not shown) , can you help?
## Output 40 nM

## Input Looking for the measured IC50 of CN(C)c1ccc(-c2cnc3ccc(N4CCCC4c4cc(F)ccc4F)nn23)cc1C#N (stereo not shown) , can you help?
## Output 32 nM

Further cases:
## Input Looking for the measured IC50 of N#Cc1cc(-c2cnc3ccc(N4CCCC4c4cc(F)ccc4F)nn23)ccc1N1CCOCC1 (stereo not shown) , can you help?
## Output 8.4 nM

## Input Looking for the measured IC50 of N#Cc1cccc(-c2cnc3ccc(N4CCC(=O)N4c4cccc(F)c4)nn23)c1 , can you help?
## Output 130 nM

## Input Looking for the measured IC50 of CN1CCC(Oc2cc(-c3cnc4ccc(N5CCCC5c5cc(F)ccc5F)nn34)ccc2C#N)C1 (stereo not shown) , can you help?
## Output 27 nM

====

The entries below come with measured BaF3 TRKA-NGF CTG IC 50 values attached.
- assayedSystem: full length rTrkA and mNGF (Rattus norvegicus)
- Construct: co-expressing full length rTrkA and mNGF; expressed in transfected cells; host or cells: Ba/F3 cells
- Sequence (P35739 33-799): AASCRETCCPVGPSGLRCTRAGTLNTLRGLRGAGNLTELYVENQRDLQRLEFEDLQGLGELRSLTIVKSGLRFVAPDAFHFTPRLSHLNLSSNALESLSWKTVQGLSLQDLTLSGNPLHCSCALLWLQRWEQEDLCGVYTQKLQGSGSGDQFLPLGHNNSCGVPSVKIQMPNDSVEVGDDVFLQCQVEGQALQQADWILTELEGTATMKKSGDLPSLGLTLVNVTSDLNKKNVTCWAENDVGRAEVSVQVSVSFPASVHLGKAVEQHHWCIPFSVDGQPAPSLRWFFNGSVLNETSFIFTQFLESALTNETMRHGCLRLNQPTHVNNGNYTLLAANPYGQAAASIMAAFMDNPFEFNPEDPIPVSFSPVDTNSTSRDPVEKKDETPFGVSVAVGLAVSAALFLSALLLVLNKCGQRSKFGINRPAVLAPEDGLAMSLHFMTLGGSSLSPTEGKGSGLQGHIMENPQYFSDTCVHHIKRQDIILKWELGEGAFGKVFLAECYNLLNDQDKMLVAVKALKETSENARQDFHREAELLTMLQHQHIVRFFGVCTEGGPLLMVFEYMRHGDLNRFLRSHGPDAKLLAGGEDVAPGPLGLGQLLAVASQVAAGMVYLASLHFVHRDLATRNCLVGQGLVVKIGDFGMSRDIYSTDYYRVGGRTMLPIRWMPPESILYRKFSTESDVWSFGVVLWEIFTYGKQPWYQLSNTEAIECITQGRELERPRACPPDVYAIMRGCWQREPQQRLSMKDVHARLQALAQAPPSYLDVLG
- Sequence (P01139 122-241 partner): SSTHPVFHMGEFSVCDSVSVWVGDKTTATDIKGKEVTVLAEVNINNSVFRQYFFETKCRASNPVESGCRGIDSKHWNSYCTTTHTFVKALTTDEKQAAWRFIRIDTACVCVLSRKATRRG
- experimentDescription: Inhibition of proliferation of Ba/F3 cells co-expressing full length rTrkA and mNGF (BaF3/TrkA-NFG)
- Type: cell-based
- testSettings: BaF3 TRKA-NGF cells, CTG readout
Just the number in nM, nothing appended.

Solved entries (count: 4):
## Input Looking for the measured BaF3 TRKA-NGF CTG IC 50 of CNC(=O)OC1CCN(c2cccc(-c3cnc4ccc(N5CCC[C@@H]5c5cccc(F)c5)nn34)n2)CC1 , can you help?
## Output 119

## Input Looking for the measured BaF3 TRKA-NGF CTG IC 50 of N#Cc1cccc(-n2cnc3ccc(N4CCCC4c4cccc(F)c4)nc32)c1 (stereo not drawn) , can you help?
## Output 680

## Input Looking for the measured BaF3 TRKA-NGF CTG IC 50 of CN(C)C(=O)CN1CCN(c2ccc(-c3cnc4ccc(N5CCOCC5c5cccc(F)c5)nn34)cc2C#N)CC1 (stereo not drawn) , can you help?
## Output 29

## Input Looking for the measured BaF3 TRKA-NGF CTG IC 50 of Fc1cccc(C2COCCN2c2ccc3ncc(-c4ccc(CN5CCOCC5)cn4)n3n2)c1 (stereo not drawn) , can you help?
## Output 280

Further cases:
## Input Looking for the measured BaF3 TRKA-NGF CTG IC 50 of CC1(c2cccc(F)c2)CCCN1c1ccc2ncc(-c3ccc(C#N)cc3)n2n1 (stereo not drawn) , can you help?
## Output 720

## Input Looking for the measured BaF3 TRKA-NGF CTG IC 50 of O=C(c1cccc(-c2cnc3ccc(N4CCCC4c4cccc(F)c4)nn23)n1)N1CCC(O)CC1 (stereo not drawn) , can you help?
## Output 87
